Origin of values: ChEMBL document CHEMBL1152748

target: Nitric oxide synthase, inducible (Mus musculus) (UniProt P29477); assay: Inhibition of iNOS in LPS-stimulated mouse J774 cells assessed as inhibition of nitric oxide generation at 10 uM; type: cell-based
Sequence (P29477 whole entry): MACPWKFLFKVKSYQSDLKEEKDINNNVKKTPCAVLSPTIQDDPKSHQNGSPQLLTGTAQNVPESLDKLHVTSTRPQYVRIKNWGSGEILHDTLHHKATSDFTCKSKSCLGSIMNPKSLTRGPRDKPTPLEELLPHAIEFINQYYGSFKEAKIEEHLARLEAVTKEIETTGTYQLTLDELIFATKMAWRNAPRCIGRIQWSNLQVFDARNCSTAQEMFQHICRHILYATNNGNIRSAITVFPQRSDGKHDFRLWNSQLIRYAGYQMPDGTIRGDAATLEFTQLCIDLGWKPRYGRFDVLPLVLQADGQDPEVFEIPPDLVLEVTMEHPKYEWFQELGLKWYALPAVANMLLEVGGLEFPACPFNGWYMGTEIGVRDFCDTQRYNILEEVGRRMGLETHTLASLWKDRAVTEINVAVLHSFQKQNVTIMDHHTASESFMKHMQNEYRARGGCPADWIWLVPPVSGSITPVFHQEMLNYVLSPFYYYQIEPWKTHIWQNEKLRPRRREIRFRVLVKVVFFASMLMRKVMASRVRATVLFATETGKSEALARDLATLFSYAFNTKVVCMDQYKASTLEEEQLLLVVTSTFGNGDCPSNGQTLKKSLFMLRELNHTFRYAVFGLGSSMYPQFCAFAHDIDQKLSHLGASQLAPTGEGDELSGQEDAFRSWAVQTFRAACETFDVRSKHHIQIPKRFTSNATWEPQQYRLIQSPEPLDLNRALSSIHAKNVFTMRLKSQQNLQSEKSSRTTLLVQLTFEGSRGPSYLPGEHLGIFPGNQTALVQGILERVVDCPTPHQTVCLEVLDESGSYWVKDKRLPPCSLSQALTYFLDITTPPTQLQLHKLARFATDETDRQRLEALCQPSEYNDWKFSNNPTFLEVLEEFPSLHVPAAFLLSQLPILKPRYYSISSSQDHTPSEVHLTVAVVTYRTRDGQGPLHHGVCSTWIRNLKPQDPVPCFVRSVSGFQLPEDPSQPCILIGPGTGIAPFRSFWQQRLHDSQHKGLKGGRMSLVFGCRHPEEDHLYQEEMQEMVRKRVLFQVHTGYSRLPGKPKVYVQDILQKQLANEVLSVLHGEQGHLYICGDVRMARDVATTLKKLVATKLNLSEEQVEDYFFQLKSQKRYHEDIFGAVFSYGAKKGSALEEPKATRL
Rule: inhibition of 60% or more gives yes (1); anything lower gives no (0).

Query :: Is it the case that Cc1ccc(-c2cc(C(F)(F)F)nn2-c2ccc(S(N)(=O)=O)cc2)cc1 has inhibition reaching or exceeding 60%?
Result :: yes (1)

Query :: # check: inhibition of Nn1c(SC2CCCCC2)nc2sc(-c3ccccc3)cc2c1=O is greater than or equal to 60%
Result :: yes (1)

Query :: Quick check: does Nn1c(SC(C(=O)O)c2ccccc2)nc2ccc(Br)cc2c1=O (stereo not drawn) have inhibition greater than or equal to 60%?
Result :: no (0)

Query :: Identify whether the reported inhibition of the following molecule is 60% or greater: CC(Sc1nc2ccccc2c(=O)n1N)C(=O)O (stereo not drawn)
Result :: no (0)

Query :: Quick check: does COc1ccc2c(c1)c(CC(=O)O)c(C)n2C(=O)c1ccc(Cl)cc1 have inhibition greater than or equal to 60%?
Result :: yes (1)

Query :: Please check the record Nn1c(SC(C(=O)O)c2ccccc2)nc2ccsc2c1=O (stereo not drawn) and state if its inhibition is at or above 60%.
Result :: no (0)

Query :: Has CS(=O)(=O)Nn1c(Sc2ccc([N+](=O)[O-])cc2[N+](=O)[O-])nc2sc(-c3ccccc3)cc2c1=O a recorded inhibition greater than or equal to 60%?
Result :: yes (1)

###

biological target: Nitric oxide synthase, inducible (Mus musculus); assay: Activation of iNOS in LPS-stimulated mouse J774 cells assessed as stimulation of nitric oxide generation at 10 uM; type: cell-based
measurement.kind: Activity (%)
Report as a plain number; the unit % is understood.

Query :: Which Activity value belongs to CC(Sc1nc2sc(-c3ccccc3)cc2c(=O)n1N)C(=O)O (stereo not given) ?
Result :: 52

Query :: Reported Activity for Nn1c(SC(C(=O)O)c2ccccc2)nc2ccccc2c1=O (stereo not given) : what is it?
Result :: 5

Query :: Which Activity reading was recorded for the molecule CC(Sc1nc2c(sc3ccccc32)c(=O)n1N)C(=O)O (stereo not given) ?
Result :: 10

Query :: Entry under review: Cc1sc2nc(SC(C(=O)O)c3ccccc3)n(N)c(=O)c2c1C (stereo not given) . Reported Activity?
Result :: 11

Query :: Which Activity reading was recorded for the molecule CC(Sc1nc2c([nH]c3ccccc32)c(=O)n1N)C(=O)O (stereo not given) ?
Result :: 35

###

molecular target: Prostaglandin G/H synthase 2 (Homo sapiens, UniProt P35354); experiment: Inhibition of COX2 in LPS-stimulated human whole blood assessed as inhibition of PGE2 production by […]; format: tissue-based
measurement.kind: pIC50
Note on units: pIC50 is unitless, being -log10 of a concentration expressed in mol/L.

Query :: Form entry - test system: Prostaglandin G/H synthase 2 (Homo sapiens, UniProt P35354); read-out: pIC50; compound: CS(=O)(=O)Nn1c(Sc2ccc([N+](=O)[O-])cc2[N+](=O)[O-])nc2sc(-c3ccccc3)cc2c1=O
Result :: 5.47

Query :: What is its pIC50 for Prostaglandin G/H synthase 2 (Homo sapiens, UniProt P35354)? Entry: Nn1c(SC(C(=O)O)c2ccccc2)nc2ccc(Br)cc2c1=O (stereo not drawn)
Result :: 5.15

Query :: Entry CC(Sc1nc2ccccc2c(=O)n1N)C(=O)O (stereo not drawn) , system Prostaglandin G/H synthase 2 (Homo sapiens, UniProt P35354): what pIC50 was measured?
Result :: 5.24

###

biological target: Prostaglandin G/H synthase 2 (Mus musculus); assay: Activation of COX2 in LPS-stimulated mouse J774 cells assessed as stimulation of PGE2 production by […]; format: cell-based; parameters: concentration or dose not given beside the values
measurement.kind: Activity (%)
Reply numerically in %, unit not repeated.

Query :: Give the measured Activity of CC(Sc1nc2c(sc3ccccc32)c(=O)n1N)C(=O)O (stereo not given) .
Result :: 52

Query :: Data request, read-out Activity, for Nn1c(SC(C(=O)O)c2ccccc2)nc2ccccc2c1=O (stereo not given)
Result :: 30

Query :: What does the record list as Activity for Cc1sc2nc(SC(C(=O)O)c3ccccc3)n(N)c(=O)c2c1C (stereo not given) ?
Result :: 346

Query :: Quick check: Activity of CC(Sc1nc2c([nH]c3ccccc32)c(=O)n1N)C(=O)O (stereo not given) ?
Result :: 180

Query :: Please give the measured Activity for this compound: CC(Sc1nc2sc(-c3ccccc3)cc2c(=O)n1N)C(=O)O (stereo not given)
Result :: 250

###

Molecular target: Prostaglandin G/H synthase 2 (Homo sapiens) (UniProt P35354)
Sequence (whole entry): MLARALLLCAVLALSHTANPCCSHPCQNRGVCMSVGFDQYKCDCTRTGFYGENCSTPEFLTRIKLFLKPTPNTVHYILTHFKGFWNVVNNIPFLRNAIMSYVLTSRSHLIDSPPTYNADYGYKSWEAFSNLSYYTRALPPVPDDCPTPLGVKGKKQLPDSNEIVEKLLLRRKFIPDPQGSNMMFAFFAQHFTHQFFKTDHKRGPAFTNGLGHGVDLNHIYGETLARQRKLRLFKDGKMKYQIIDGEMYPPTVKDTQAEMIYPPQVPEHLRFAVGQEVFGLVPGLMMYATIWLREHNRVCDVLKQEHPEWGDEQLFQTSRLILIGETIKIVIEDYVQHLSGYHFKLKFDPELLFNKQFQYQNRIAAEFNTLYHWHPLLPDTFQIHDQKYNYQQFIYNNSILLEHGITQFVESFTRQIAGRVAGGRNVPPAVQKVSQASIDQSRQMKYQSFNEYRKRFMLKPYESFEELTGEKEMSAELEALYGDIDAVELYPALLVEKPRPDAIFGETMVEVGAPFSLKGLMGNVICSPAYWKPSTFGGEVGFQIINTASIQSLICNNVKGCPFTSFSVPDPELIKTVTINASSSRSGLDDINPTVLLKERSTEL
Experiment: Activation of COX2 in LPS-stimulated human whole blood assessed as stimulation of PGE2 production at 10 uM […]
Assay type: tissue-based
Label Condition met for high-side Activity (at or above 30%) and Condition not met for low-side Activity (below it).

Query :: Reported Activity at or above 30%? CC(Sc1nc2c(sc3ccccc32)c(=O)n1N)C(=O)O (stereo not given)
Result :: Condition not met

Query :: Please indicate if the recorded Activity for CC(Sc1nc2sc(-c3ccccc3)cc2c(=O)n1N)C(=O)O (stereo not given) meets or exceeds 30%.
Result :: Condition met

Query :: Decide: is the reported value of Activity for Cc1sc2nc(SC(C(=O)O)c3ccccc3)n(N)c(=O)c2c1C (stereo not given) equal to or greater than 30%?
Result :: Condition met

Query :: Quick check: does Nn1c(SC(C(=O)O)c2ccccc2)nc2ccccc2c1=O (stereo not given) have Activity greater than or equal to 30%?
Result :: Condition not met

Query :: Hi, just wondering whether CC(Sc1nc2c([nH]c3ccccc32)c(=O)n1N)C(=O)O (stereo not given) shows Activity of 30% or higher.
Result :: Condition not met
